# Test system: cell lines from the Cancer Cell Line Encyclopedia (CCLE)
# measurementDescription: High-throughput cell viability assay, CCLE cell line panel (n = 356)
# Assay type: cell-based, human
# protocolConditions: Homo sapiens, HCC78, HCC-78, TP53 MUT
pIC50: −log10 of the molar value.
quantityKind: pIC50

Which pIC50 value belongs to COc1cc2c(cc1OC(C)C)[C@H](c1ccc(Cl)cc1)N(c1ccc(N(C)C[C@H]3CC[C@H](N4CCNC(=O)C4)CC3)cc1)C(=O)C2 [NVP-CFC218] ?
< 5.10

----------
# Tested on: cell lines from the Cancer Cell Line Encyclopedia (CCLE)
# measurementDescription: High-throughput cell viability assay, CCLE cell line panel (n = 356)
# Assay type: cell-based, human
# protocolConditions: Homo sapiens, SF-295, SF-295, TP53 MUT
# Description: Cell lines were partitioned into sensitive and insensitive groups based on compound potency (IC50). […] All other cell lines were obtained from ATCC (American Type Culture Collection), DSMZ (Deutsche Sammlung von Mikroorganismen und Zellkulturen), and HSRRB (Health Science Research Resources Bank) and cultured in RPMI or Dulbecco's modified Eagle's medium plus 10% FBS (Invitrogen, Carlsbad, CA) at 37°C, 5% CO2.
quantityKind: IC50

For the compound `COc1cc2c(cc1OC(C)C)[C@H](c1ccc(Cl)cc1)N(c1ccc(N(C)C[C@H]3CC[C@H](N4CCNC(=O)C4)CC3)cc1)C(=O)C2` , what IC50 is on record?
> 8 µM

----------
# System: cell lines from the Cancer Cell Line Encyclopedia (CCLE)
# measurementDescription: High-throughput cell viability assay, CCLE cell line panel (n = 356)
# Type: cell-based, human
# protocolConditions: Homo sapiens, TE 617.T, TP53 WT
quantityKind: pIC50
In plain terms, pIC50 is the concentration in mol/L turned into minus its base-10 logarithm.

Report pIC50 for `COc1cc2c(cc1OC(C)C)[C@H](c1ccc(Cl)cc1)N(c1ccc(N(C)C[C@H]3CC[C@H](N4CCNC(=O)C4)CC3)cc1)C(=O)C2` please.
5.54

----------
# Test system: cell lines from the Cancer Cell Line Encyclopedia (CCLE)
# measurementDescription: High-throughput cell viability assay, CCLE cell line panel (n = 356)
# Assay type: cell-based, human
# protocolConditions: Homo sapiens, P12-Ichikawa, TP53 MUT
quantityKind: IC50 (µM)
Note: unit µM is implicit; provide only the numeric part.

What value of IC50 has been recorded for this entry: COc1cc2c(cc1OC(C)C)[C@H](c1ccc(Cl)cc1)N(c1ccc(N(C)C[C@H]3CC[C@H](N4CCNC(=O)C4)CC3)cc1)C(=O)C2 [NVP-CFC218]
2.5

----------
# Tested on: cell lines from the Cancer Cell Line Encyclopedia (CCLE)
# measurementDescription: High-throughput cell viability assay, CCLE cell line panel (n = 356)
# Format: cell-based, human
# protocolConditions: Homo sapiens, HPBALL, HPB-ALL, TP53 MUT
pIC50: −log10 of the molar value.
quantityKind: pIC50

Please look up its pIC50: `COc1cc2c(cc1OC(C)C)[C@H](c1ccc(Cl)cc1)N(c1ccc(N(C)C[C@H]3CC[C@H](N4CCNC(=O)C4)CC3)cc1)C(=O)C2`
< 5.10

----------
# System: cell lines from the Cancer Cell Line Encyclopedia (CCLE)
# measurementDescription: High-throughput cell viability assay, CCLE cell line panel (n = 356)
# Type: cell-based, human
# protocolConditions: Homo sapiens, PE/CA-PJ34 (clone C12), TP53 MUT
pIC50: −log10 of the molar value.
quantityKind: pIC50

I have this molecule here, COc1cc2c(cc1OC(C)C)[C@H](c1ccc(Cl)cc1)N(c1ccc(N(C)C[C@H]3CC[C@H](N4CCNC(=O)C4)CC3)cc1)C(=O)C2 [NVP-CFC218] , and I need its recorded pIC50.
< 5.10

Where these numbers come from: paper PMC4468608
